Entry source: ChEMBL document CHEMBL1201862

As a worked illustration, we turn to AC50 data collected for Cytochrome P450 2C9 (Homo sapiens).

Would you please look over these solved cases?
compound | AC50
CS(=O)(=O)N1CCC2(CCN(Cc3ccncc3)CC2)CC1 | 31.6 µM (inconclusive)
CCOC(=O)C1=C(c2ccccc2)N=c2s/c(=C\c3cc(OC)c(OC)c(OC)c3)c(=O)n2C1c1cccs1 (centres undefined) | 1.26 µM (inconclusive)
COc1ccc(OCCNS(=O)(=O)c2ccc3oc4ccccc4c3c2)cc1 | 2.51 µM (inconclusive)

// next entry
Input: Item "COCCn1c(=O)c(-c2ccc(Cl)cc2)nc2cnc(OC)nc21" has what recorded AC50?
Output: 39.8 µM (inconclusive)

* * *

EC50 overview
Biological target: Endoribonuclease toxin MazF (Escherichia coli K-12, UniProt P0AE70)
Sequence (P0AE70 whole entry): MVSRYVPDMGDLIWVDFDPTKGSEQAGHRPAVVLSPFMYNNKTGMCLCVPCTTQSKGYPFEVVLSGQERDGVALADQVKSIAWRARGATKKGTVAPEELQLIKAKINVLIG
Experiment: substrate-only fluorescence increase artefacts – biochemical, single-stranded RNase substrate, counter-screen for MazEF activator project, dose response (AID 588502)
Format: functional
The source made the active and inactive calls.

Would you please look over these solved cases?
input.smiles | system.under.test | EC50
CCn1c(/C=C/c2ccc(O)c(O)c2)nc2ccccc2c1=O | Endoribonuclease toxin MazF (Escherichia coli K-12, UniProt P0AE70) | 88.4 µM (inactive)
CCCCC(=O)Nc1ccc(C(=O)Nc2ccc(OC)cc2[N+](=O)[O-])cc1 | Endoribonuclease toxin MazF (Escherichia coli K-12, UniProt P0AE70) | > 99 µM (inactive)
Cc1cc(-c2ccccc2)c2c3c(c(-c4ccccc4)n2n1)c(=O)n(C)c(=O)n3C | Endoribonuclease toxin MazF (Escherichia coli K-12, UniProt P0AE70) | > 99 µM (inactive)
COC(=O)c1c(/N=C/N(C)C)sc2c1CCN(c1ncc(C(F)(F)F)cc1Cl)C2 | Endoribonuclease toxin MazF (Escherichia coli K-12, UniProt P0AE70) | > 99 µM (inactive)

// next entry
Input: Item "Nc1c(C(=O)c2cccs2)sc2nsc(SCCN3CCCCC3)c12" has what recorded EC50?
Output: > 99 µM (inactive)

* * *

Tested on: H4
Assay: Luminescence Cell-Based Dose Response HTS to Identify Activators of 5'UTR Stem-Loop Driven Prion Protein mRNA Translation in H4 Neuroglioblastoma Cells. [Related pubchem assays: 1829 (Project Summary), 1814 (Primary HTS)]
Type: functional
Conditions: Homo sapiens
recorded.endpoint: EC50

Would you please look over these solved cases?
compound | recorded.measurement
Cc1ccc(Nc2nc(=O)c3cccnc3s2)cc1 | > 120 µM (not active)
C=C1C(=O)O[C@@H]2C[C@@H](C)[C@@H]3C4OC4C(=O)[C@@]3(C)[C@@H](O)[C@H]12 (stereo not given in full) | > 120 µM (not active)
CC(=O)OCC1OC(n2cc(F)c(=O)[nH]c2=O)C(OC(C)=O)C1OC(C)=O (stereo not given) | > 120 µM (not active)
O=Cc1c(N2CCN(c3ccccc3)CC2)nc2ccccn2c1=O | > 120 µM (not active)

Input: Item "c1ccc(-c2cn(CC3CCCCC3)nn2)cc1" has what recorded EC50?
Output: > 120 µM (inconclusive)

* * *

Target: UniProt P05186
Sequence (P05186 whole entry): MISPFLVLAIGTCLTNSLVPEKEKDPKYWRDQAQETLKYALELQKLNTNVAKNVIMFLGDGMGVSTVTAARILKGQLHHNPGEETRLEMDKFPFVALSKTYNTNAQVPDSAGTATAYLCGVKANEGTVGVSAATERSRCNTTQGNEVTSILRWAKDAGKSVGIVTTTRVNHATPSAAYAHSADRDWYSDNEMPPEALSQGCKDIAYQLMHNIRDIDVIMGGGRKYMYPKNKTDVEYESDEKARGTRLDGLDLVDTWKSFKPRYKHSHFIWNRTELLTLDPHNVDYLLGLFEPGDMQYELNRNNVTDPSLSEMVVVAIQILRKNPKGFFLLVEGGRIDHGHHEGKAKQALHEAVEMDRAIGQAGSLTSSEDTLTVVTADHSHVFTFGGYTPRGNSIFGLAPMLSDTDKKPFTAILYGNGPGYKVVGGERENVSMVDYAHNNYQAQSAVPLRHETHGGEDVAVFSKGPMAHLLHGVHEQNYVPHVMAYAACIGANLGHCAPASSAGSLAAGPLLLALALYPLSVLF
Experiment: potency against alkaline phosphatase TNAP – biochemical, luminescent, dose response, SAR follow-up (AID 1056)
Calls of active or inactive are those of the source.
Thanks in advance; please answer with one of these: true (1) for active, false (0) for inactive

# count of solved cases: 3
input.smiles | system.under.test | category
Cc1ccc(-c2nnc(SCC(=O)c3ccc(O)c(O)c3)n2-c2ccccc2)cc1 | UniProt P05186 | false (0)
O=C(c1cc(-c2ccc(Cl)cc2Cl)n[nH]1)N1CCCC1 | UniProt P05186 | true (1)
O=c1c2ccccc2sn1-c1ccc(F)cc1 | UniProt P05186 | false (0)

Now examine the next entry.
Input: // outcome(item) with item = "Cc1cc(C)nc(NCc2ccc(O)c(O)c2)n1"
Output: true (1)

* * *

Biological target: G-protein coupled receptor 55 (Homo sapiens)
Sequence (Q9Y2T6 whole entry): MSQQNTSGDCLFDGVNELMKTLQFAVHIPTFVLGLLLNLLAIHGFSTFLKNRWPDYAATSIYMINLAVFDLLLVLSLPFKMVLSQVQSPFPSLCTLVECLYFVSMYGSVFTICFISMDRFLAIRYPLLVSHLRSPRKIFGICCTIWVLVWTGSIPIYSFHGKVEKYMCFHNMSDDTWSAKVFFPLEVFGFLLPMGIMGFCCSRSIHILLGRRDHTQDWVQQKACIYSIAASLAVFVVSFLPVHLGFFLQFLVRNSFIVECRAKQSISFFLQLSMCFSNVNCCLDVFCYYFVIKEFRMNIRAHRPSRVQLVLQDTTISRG
Assay: inhibition of LPI-stimulated GPR55 beta-arrestin translocation – imaging, U2OS, beta-arrestin-GFP, LPI agonist, primary screen (AID 2013);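 note: antagonist potency measured as reduced agonist-driven arrestin aggregation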
Assay type: functional
Active and inactive are the calls of the source.
Thanks in advance; please answer with one of these: Yes (active), No (inactive)

# count of solved cases: 5
molecule | category
CCOC(=O)c1c(N)sc(C(O)(C(F)(F)F)C(F)(F)F)c1-c1ccc(F)cc1 | Yes
COC(=O)C1=C(C)N(Cc2ccccc2)C(NCc2ccc(OC)cc2)=N[C@H]1c1cccc(F)c1 | Yes
CC(C)(C)C1=CC(O)(c2ccccc2)C=C(C(C)(C)C)C1=O | No
CCOC(=O)/C(=C\c1cccnc1)C(=O)c1cc(C(C)=O)c(Nc2ccccc2)s1 | Yes
CCc1ccc(NS(=O)(=O)c2cc3c(cc2C)n(C)c(=O)c(=O)n3C)cc1 | Yes

Input: // outcome(item) with item = "COc1ccc(NC(=O)c2cnn3c(O)cc(C4CCN(C(=O)OC(C)(C)C)CC4)nc23)cc1Cl"
Output: Yes

Input: Now this one: COC(=O)C1=C(N)c2c(F)cccc2C1(C#N)c1ccccc1 (configuration not stated)
Output: Yes

* * *

Test: Trypanosoma cruzi growth suppression in host cells – NIH3T3 host cells, beta-gal luminescence, confirmation (AID 2044);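 note: intracellular parasites grown in NIH/3T3 mouse fibroblasts as host cells; luminescent beta-galactosidase reporter signal from transgenic T. cruzi replicating inside host cells; inhibitors lower the luminescence signal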
Format: functional, cell-based
Active and inactive are the calls of the source.
recorded.endpoint: EC50

Would you please look over these solved cases?
compound | EC50
O=C(Nc1nc2ccc([N+](=O)[O-])cc2s1)c1ccc(S(=O)(=O)N2CCCc3ccccc32)cc1 | 2.01 µM (active)
COc1ccccc1N1CCN(C(CNS(=O)(=O)c2cc(F)ccc2F)c2cccnc2)CC1 (configuration not stated) | 0.367 µM (active)
CN1CCN(c2ccc(NC(=O)c3ccc4c(c3)nc(O)n4Cc3ccc(F)cc3)cc2)CC1 | 0.955 µM (active)

Input: Item "CN(CC(=O)Nc1cccc(F)c1)C(=O)c1ccccc1OCC(=O)Nc1cccc(C(F)(F)F)c1" has what recorded EC50?
Output: 0.775 µM (active)

Input: Now this one: "O=c1c2ccccc2nc(-c2ccc(-c3ccccc3)cc2)n1-c1ccncc1"
Output: 0.398 µM (active)

Input: Now this one: "O=[N+]([O-])c1ccc(S(=O)(=O)NCCS(=O)(=O)N2CCN(c3ccccc3)CC2)cc1"
Output: 0.247 µM (active)

Input: Now this one: "Cc1ccc(Cl)cc1NC1=C/C(=N\S(=O)(=O)c2cccs2)c2ccccc2C1=O"
Output: 1.6 µM (active)

Input: Now this one: "Cc1c(C(=O)NCc2ccc3c(c2)OCO3)oc2ccc(S(=O)(=O)N3CCC(C)CC3)cc12"
Output: 1.04 µM (active)

* * *

Biological target: Leucine aminopeptidase (Plasmodium falciparum 3D7)
Sequence (Q8IL11 whole entry): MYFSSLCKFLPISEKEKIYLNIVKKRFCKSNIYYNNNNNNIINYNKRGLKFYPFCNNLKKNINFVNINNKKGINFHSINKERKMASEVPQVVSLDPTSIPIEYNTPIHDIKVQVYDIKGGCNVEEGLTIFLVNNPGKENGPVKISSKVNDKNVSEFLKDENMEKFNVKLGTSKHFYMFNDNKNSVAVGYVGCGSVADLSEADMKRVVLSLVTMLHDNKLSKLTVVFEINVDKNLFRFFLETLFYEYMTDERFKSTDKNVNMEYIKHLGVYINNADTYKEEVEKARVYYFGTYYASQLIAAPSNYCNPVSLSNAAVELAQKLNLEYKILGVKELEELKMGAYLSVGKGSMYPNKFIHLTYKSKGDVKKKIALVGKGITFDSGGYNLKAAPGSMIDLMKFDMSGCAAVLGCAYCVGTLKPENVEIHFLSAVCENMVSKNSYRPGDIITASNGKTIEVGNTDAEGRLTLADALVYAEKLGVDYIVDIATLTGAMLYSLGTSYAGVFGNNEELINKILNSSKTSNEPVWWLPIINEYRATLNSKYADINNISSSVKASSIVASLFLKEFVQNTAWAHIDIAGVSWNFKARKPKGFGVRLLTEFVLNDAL
Assay: P. falciparum M17LAP inhibitors, primary screen, biochemical, fluorogenic H-Leu-NHMec substrate, 1536-well (AID 1619)
Type: functional
The source made the active and inactive calls.
IC50 overview

Would you please look over these solved cases?
input.smiles | IC50
COC(=O)c1ccc(Cl)c(NC(=O)CSc2nnc[nH]2)c1 | 35.1 µM (active)
Cc1cccc(NC(=O)CSc2nnc(NC(=O)CN3CCOCC3)s2)c1 | 14 µM (active)
Cc1ccccc1NC(=O)CSc1nc(O)cc(C)c1C#N | 10.9 µM (active)

// next entry
Input: Item "Cc1ccc(NC(=O)CSc2nnc(C)c(=O)[nH]2)cc1C" has what recorded IC50?
Output: 3.51 µM (active)

* * *

Target: Peroxisome proliferator-activated receptor gamma/Nuclear receptor coactivator 1 (Homo sapiens, UniProt P37231);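 note: agonist potency as compounds enhance coactivator SRC-1 recruitment to PPARgamma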
Sequence (P37231 whole entry): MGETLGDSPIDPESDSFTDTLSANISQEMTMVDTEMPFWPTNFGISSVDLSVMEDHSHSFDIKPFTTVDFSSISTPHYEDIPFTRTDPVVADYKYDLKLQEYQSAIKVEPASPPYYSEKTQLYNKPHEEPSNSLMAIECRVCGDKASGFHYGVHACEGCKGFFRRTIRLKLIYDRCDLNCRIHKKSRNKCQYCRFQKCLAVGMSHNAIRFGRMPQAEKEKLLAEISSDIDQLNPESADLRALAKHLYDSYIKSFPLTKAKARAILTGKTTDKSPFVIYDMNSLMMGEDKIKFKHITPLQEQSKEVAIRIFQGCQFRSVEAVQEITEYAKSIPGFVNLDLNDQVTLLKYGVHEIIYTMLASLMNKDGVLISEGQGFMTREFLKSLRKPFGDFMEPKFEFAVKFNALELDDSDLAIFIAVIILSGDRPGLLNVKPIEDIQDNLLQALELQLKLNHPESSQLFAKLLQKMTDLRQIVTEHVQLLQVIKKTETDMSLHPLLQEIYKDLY
Sequence (Q15788 whole entry, further chain): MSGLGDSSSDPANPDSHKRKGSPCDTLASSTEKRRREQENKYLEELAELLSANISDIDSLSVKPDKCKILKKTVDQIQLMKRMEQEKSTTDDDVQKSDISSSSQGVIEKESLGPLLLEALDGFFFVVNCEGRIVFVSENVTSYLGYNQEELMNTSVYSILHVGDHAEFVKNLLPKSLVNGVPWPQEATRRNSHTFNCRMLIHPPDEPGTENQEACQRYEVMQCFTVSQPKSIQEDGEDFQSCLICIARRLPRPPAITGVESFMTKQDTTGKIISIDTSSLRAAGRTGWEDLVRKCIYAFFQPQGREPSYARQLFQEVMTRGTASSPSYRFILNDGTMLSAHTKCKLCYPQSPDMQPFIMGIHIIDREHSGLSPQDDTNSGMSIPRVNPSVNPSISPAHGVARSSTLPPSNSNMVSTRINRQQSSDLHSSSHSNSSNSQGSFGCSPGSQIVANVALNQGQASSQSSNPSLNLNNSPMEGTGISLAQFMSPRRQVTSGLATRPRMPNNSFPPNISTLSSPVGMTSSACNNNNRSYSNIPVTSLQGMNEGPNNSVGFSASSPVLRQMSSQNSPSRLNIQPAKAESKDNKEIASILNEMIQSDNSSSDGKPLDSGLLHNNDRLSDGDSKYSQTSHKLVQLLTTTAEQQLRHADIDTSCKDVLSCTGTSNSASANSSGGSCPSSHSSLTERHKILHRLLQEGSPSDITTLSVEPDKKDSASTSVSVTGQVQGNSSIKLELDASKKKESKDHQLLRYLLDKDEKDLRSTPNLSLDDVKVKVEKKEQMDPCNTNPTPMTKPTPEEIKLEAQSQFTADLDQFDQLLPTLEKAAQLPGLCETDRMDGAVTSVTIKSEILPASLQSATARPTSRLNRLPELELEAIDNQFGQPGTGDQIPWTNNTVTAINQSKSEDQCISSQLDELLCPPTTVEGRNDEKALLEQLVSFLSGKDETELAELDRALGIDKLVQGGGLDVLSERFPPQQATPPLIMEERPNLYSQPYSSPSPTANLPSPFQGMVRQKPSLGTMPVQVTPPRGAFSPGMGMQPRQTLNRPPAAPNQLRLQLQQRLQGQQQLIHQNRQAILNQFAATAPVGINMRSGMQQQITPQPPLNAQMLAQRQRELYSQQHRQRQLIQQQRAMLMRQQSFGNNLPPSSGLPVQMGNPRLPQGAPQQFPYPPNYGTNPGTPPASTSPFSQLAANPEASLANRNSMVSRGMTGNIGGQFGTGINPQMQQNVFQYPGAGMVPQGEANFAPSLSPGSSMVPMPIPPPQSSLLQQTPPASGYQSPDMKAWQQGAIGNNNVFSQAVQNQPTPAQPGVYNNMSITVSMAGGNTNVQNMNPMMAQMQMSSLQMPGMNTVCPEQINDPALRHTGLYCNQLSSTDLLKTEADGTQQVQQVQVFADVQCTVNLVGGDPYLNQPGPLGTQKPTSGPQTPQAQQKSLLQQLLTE
Format: functional
recorded.endpoint: EC50

molecule | EC50
O=C(CSc1ncnc2c1nnn2Cc1ccccc1F)N1CCN(c2ccccc2)CC1 | > 79.4 µM (not active)

// next entry
Input: Item "Cc1nn(-c2ccccn2)c2c1-c1nc(N3CCOCC3)ncc1CC2" has what recorded EC50?
Output: > 79.4 µM (not active)
